These measurements were taken from the supplement of paper PMC10567573.

- Test description: protein stability index of a GFP-peptide fusion (GPS, HEK-293T) (PSI 1-6); higher = more stable;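 also: 24-mer peptide tiles fused after GFP, lentivirally expressed, FACS-sorted into six equal bins by GFP/DsRed ratio, decoded by Illumina sequencing, PSI is the read-weighted mean bin number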
- Study conditions: treatment: DMSO; c terminus: a fixed tail appended
Grouping key: protein stability index. Bins: bottom bin = under 3, middle bin = from 3 up to 4, top bin = 4 and over

{"Chain sequence": "IDILWRQDIDLGAGREVFDYSHRQ [NFE2L1]", "Group": "bottom bin"}
{"Chain sequence": "NIHPQVLLPDQARGEVPWSPELGR [ZNF263]", "Group": "top bin"}
{"Chain sequence": "DAEFLCVFCREGPTHQAHTVGFLD [TRIM15]", "Group": "bottom bin"}
{"Chain sequence": "LLKIHEVSTVSHADADCFVCVFLS [CASP6]", "Group": "bottom bin"}
{"Chain sequence": "CGPAEERVLLTGLHAVADIHCENC [YPEL3]", "Group": "middle bin"}
{"Chain sequence": "DVKCYQGTDIVRGCDPLVKPVGRQ [ADAMTSL2]", "Group": "middle bin"}
{"Chain sequence": "QNPTASYYNVVLLRYQFSRPGPQS [FCHO1]", "Group": "bottom bin"}
{"Chain sequence": "VDQTGVSGGVASFICQATGDPRPK [PTPRD]", "Group": "top bin"}
{"Chain sequence": "QFHKQIAVMRGQILNLTQALKDNK [PI4K2A]", "Group": "bottom bin"}
{"Chain sequence": "AIDQYRVCQEVLERSRDVVDEVSV [RHOBTB1]", "Group": "top bin"}
{"Chain sequence": "PAWNSKLQYILAQIGFSVGLGNIW [SLC6A17]", "Group": "bottom bin"}
{"Chain sequence": "EISRGEYLYTYDSQITDSEHNSSL [ZNF8]", "Group": "top bin"}
{"Chain sequence": "LSQSPEPGRRGDPDTAPPSERPLE [RTN2]", "Group": "top bin"}
{"Chain sequence": "SLGERMNTFVRYLLKRIKKCCGMR [KCNK9]", "Group": "middle bin"}
{"Chain sequence": "SSCSSTSGGGGGGGGGGGGGKSGG [CCDC6]", "Group": "top bin"}
{"Chain sequence": "YRGAVYADSGNFKRCINLWKYALD [FEM1C]", "Group": "bottom bin"}
{"Chain sequence": "PSNSSSLTLSGIKEDNSLLNQGFL [MYBL2]", "Group": "middle bin"}
{"Chain sequence": "ASKKTAQPWVEVVLALRNMKNLLF [MFSD9]", "Group": "bottom bin"}
{"Chain sequence": "VEESEASSSVSISHSASATGNVCI [LMNB1]", "Group": "top bin"}
{"Chain sequence": "PTLDAPGGRALVVRKVPPGYSIKV [SMAD6]", "Group": "bottom bin"}
{"Chain sequence": "ESGEHFRSLLGYDPQILQMLKEEH [RAD54B]", "Group": "middle bin"}
